Test: physchem
Conditions: reversed-phase hplc
The entries below are paired with their reported chromatographic logP.
readout_type: chromatographic logP

compound=O=c1c2ncn([C@@H]3O[C@@H]4CO[P@@](O)(=S)O[C@H]4[C@H]3O)c2[nH]c2nc(-c3ccccc3)cn12 readout_type="chromatographic logP" reported_result=2.81
compound=O=c1c2ncn([C@@H]3O[C@@H]4CO[P@](O)(=S)O[C@H]4[C@H]3O)c2[nH]c2nc(-c3ccccc3)cn12 readout_type="chromatographic logP" reported_result=2.83
compound=Nc1nc2c(nc(Sc3ccc(Cl)cc3)n2[C@@H]2O[C@@H]3CO[P@](O)(=S)O[C@H]3[C@H]2O)c(=O)[nH]1 readout_type="chromatographic logP" reported_result=2.84
compound=O=c1c2nc(Br)n([C@@H]3O[C@@H]4CO[P@@](O)(=S)O[C@H]4[C@H]3O)c2nc2[nH]c(-c3ccccc3)cn12 readout_type="chromatographic logP" reported_result=3.22
compound="Nc1nc2c(ncn2[C@@H]2O[C@@H]3COP(=O)(O)O[C@H]3[C@H]2O)c(=O)[nH]1 [cGMP, guanosine-3',5'-monophosphate, reference compound]" readout_type="chromatographic logP" reported_result=0.77
compound=Nc1nc2c(nc(Sc3ccc(Cl)cc3)n2[C@@H]2O[C@@H]3CO[P@@](O)(=S)O[C@H]3[C@H]2O)c(=O)[nH]1 readout_type="chromatographic logP" reported_result=2.82
